SYSTEM NAME: human Cereblon WT GST-tagged protein (Homo sapiens (Human), UniProt Q96SW2)
Sequence (Q96SW2 whole entry): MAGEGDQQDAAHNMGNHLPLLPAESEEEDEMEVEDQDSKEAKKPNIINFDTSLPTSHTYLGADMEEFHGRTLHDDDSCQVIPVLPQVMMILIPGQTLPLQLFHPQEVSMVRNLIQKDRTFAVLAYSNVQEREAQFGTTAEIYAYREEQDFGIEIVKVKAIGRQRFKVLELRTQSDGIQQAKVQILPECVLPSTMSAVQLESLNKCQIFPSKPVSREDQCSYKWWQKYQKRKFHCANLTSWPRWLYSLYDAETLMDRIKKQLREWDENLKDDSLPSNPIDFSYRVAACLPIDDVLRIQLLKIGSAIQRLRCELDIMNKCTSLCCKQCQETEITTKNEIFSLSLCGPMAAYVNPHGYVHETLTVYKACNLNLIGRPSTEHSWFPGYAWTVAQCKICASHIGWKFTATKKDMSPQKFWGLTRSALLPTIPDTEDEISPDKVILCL
# IC50 values compiled below
Just the number please, in nM, no unit attached.

CC1(C)CCC(C(=O)N2CC3CCC2CN3C(=O)c2ccc3c(c2)CN(C2CCC(=O)NC2=O)C3=O)=C(c2ccc(Cl)cc2)C1 (stereo not drawn) [GT-05663] = 1090

Ask | Short answer please: IC50, human Cereblon WT GST-tagged protein (Homo sapiens (Human), UniProt Q96SW2), entry CC1(C)CCC(CN2CCN(CCc3ccc4c(c3)CN(C3CCC(=O)NC3=O)C4=O)CC2)=C(c2ccc(Cl)cc2)C1 (stereo not drawn) [GT-05361]
Reply | 370

Ask | Note, next up: CC1(C)CCC(CN2C[C@H]3C[C@@H]2CN3C(=O)c2ccc3c(c2)CN(C2CCC(=O)NC2=O)C3=O)=C(c2ccc(Cl)cc2)C1 (stereo partly drawn) [GT-05441]
Reply | 1570

Ask | Note, next up: CC1(C)CCC(CN2CC3CCC2CN3Cc2cc(F)c3c(c2)CN(C2CCC(=O)NC2=O)C3=O)=C(c2ccc(Cl)cc2)C1 (stereo not drawn) [GT-05781]
Reply | 710

Ask | Note, next up: O=C1CCC(N2Cc3cc(CC4CCN(Cc5ccccc5-c5ccc(Cl)cc5)CC4)ccc3C2=O)C(=O)N1 (stereo not drawn) [GT-03361]
Reply | 1590

Ask | Note, next up: CC1(C)CCC(CN2C3CC2CN(c2ccc4c(c2)C(=O)N(C2CCC(=O)NC2=O)C4=O)C3)=C(c2ccc(Cl)cc2)C1 (stereo not drawn) [GT-05378]
Reply | 1770

Each recorded value in this set is attributed to patent US20260028326A1.
